test: Human Hepatocyte Stability; type: in vitro ADME; conditions: pooled human hepatocytes, 1 μM, 60 minute incubation
Quick reference: hepatocyte CLint at 1 μM of the listed items.

molecule: CC(=O)N1CCC(CS(=O)(=O)c2ccc(-c3cc(F)ccc3F)cc2)CC1 [NASMP-03]
hepatocyte CLint at 1 μM: < 3 µL/min/1e6 cells
--
molecule: CC(=O)N1CCC(CS(=O)(=O)c2ccc(-c3c(F)cccc3F)cc2)CC1 [NASMP-09]
hepatocyte CLint at 1 μM: < 3.4 µL/min/1e6 cells
--
molecule: CC(=O)N1CCC(CS(=O)(=O)c2ccc(-c3ccc(F)cc3F)cc2)CC1 [NASMP-01]
hepatocyte CLint at 1 μM: < 3 µL/min/1e6 cells
--
molecule: CC(=O)N1CCC(CS(=O)(=O)c2ccc(-c3cc(F)cc(F)c3)cc2)CC1 [NASMP-20]
hepatocyte CLint at 1 μM: < 3 µL/min/1e6 cells
--
molecule: CC(=O)N1CCC(CS(=O)(=O)c2ccc(-c3ccc(F)c(F)c3)cc2)CC1 [NASMP-02]
hepatocyte CLint at 1 μM: < 3 µL/min/1e6 cells
